test system: Receptor-type tyrosine-protein kinase FLT3 (Homo sapiens), P36888 [D835Y]; conditions: at 1 µM
Measured Property: inhibition

A selection of reference data follows.
In [3]: df
Out[3]:
                                   molecule                        measurement_target  result
0  COc1cc2ncn(-c3cc(OCc4ccccc4C(F)(F)F)c(C(=O)N(C)C)s3)c2cc1OC  Receptor-type tyrosine-protein kinase FLT3 (Homo sapiens), P36888 [D835Y]    1.1%
1  CCNC(=O)O[C@H]1CN[C@H](C#Cc2cc3ncnc(Nc4ccc(OCc5cccc(F)c5)c(Cl)c4)c3s2)C1  Receptor-type tyrosine-protein kinase FLT3 (Homo sapiens), P36888 [D835Y]   2.57%
2  COc1ccc2[nH]c3c4[nH]c5ccc(OC)cc5c4c4c(c3c2c1)C(=O)NC4=O  Receptor-type tyrosine-protein kinase FLT3 (Homo sapiens), P36888 [D835Y]   92.7%
3  CCCN(CCS(C)(=O)=O)Cc1ccc(-c2ccc3ncnc(Nc4ccc(OCc5cccc(F)c5)c(Cl)c4)c3c2)o1  Receptor-type tyrosine-protein kinase FLT3 (Homo sapiens), P36888 [D835Y]   0.99%

Each of the following entries comes with a recorded value; kindly state inhibition for each.
1. CC1=C(C(=O)Nc2cc(Cl)c3[nH]ncc3c2)C(c2ccc(C(F)(F)F)cc2)CC(=O)N1 (stereo not drawn)
2. CCn1cc(-c2ccnc3[nH]ccc23)c(-c2cccc(NC(=O)Nc3ccc(OCc4ccccc4)cc3)c2)n1
3. CN(C)CCOc1ccc(-c2nc(-c3ccncc3)c(-c3ccc4c(c3)CC/C4=N\O)[nH]2)cc1
4. [O-][S+]1CCN(Cc2ccc(-c3ccc4ncnc(Nc5ccc(OCc6cccc(F)c6)c(Cl)c5)c4c3)o2)CC1

1.66%
0.68%
7.87%
-0.26%

Reference for the values: ChEMBL document CHEMBL1961873
